Tested on: A375 multi-cell spheroids with HUVEC/MSC, viability
testMethodNotes: Anticancer human tumor A375 cell line growth inhibition [GQUAD];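 also: spheroids exposed to compounds for seven days before readout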
conditionLabel: second compound 0.1 µM; first compound 0.1 µM; stronger effect = lower value
quantityMeasured: viability, T/C (%)
Lab book: enter the figure in %, no units written.

Exercise: Query (compound): CC1COCCN1c1cc(C2(S(C)(=N)=O)CC2)nc(-c2ccnc3[nH]ccc23)n1 (centres undefined) + Cc1[nH]c2ccc(F)cc2c1-c1nc2c3cccnc3c3ncccc3c2[nH]1 ; field requested: viability, T/C
Solution: 106

Exercise: Query (compound): COc1cc(C2c3cc4c(cc3C(OC3OC5COC(C)OC5C(O)C3O)C3COC(=O)C23)OCO4)cc(OC)c1O (centres undefined) + Cc1[nH]c2ccc(F)cc2c1-c1nc2c3cccnc3c3ncccc3c2[nH]1 ; field requested: viability, T/C
Solution: 134

Exercise: Query (compound): CC(C)(O)C1CCC(Nc2ccc3ncc(-c4cccc(C(F)(F)F)c4)n3n2)CC1 (centres undefined) + Cc1cnc(CNC(=O)c2c(=O)c3ccc(N4CCCN(C)CC4)nc3n3c2sc2ccccc23)cn1 ; field requested: viability, T/C
Solution: 79.5

Exercise: Query (compound): CC(C)n1c(=O)n(C)c2cnc3cc(F)c(-c4ccc(OCCCN5CCCCC5)nc4)cc3c21 + Cc1[nH]c2ccc(F)cc2c1-c1nc2c3cccnc3c3ncccc3c2[nH]1 ; field requested: viability, T/C
Solution: 89.7

Exercise: Query (compound): C=CCn1c(=O)c2cnc(Nc3ccc(N4CCN(C)CC4)cc3)nc2n1-c1cccc(C(C)(C)O)n1 + Cc1[nH]c2ccc(F)cc2c1-c1nc2c3cccnc3c3ncccc3c2[nH]1 ; field requested: viability, T/C
Solution: 94.2

Exercise: Query (compound): CC1COCCN1c1cc(C2(O)CC3CCC(C2)O3)c2cnn(-c3ccn[nH]3)c2n1 (centres undefined) + Cc1[nH]c2ccc(F)cc2c1-c1nc2c3cccnc3c3ncccc3c2[nH]1 ; field requested: viability, T/C
Solution: 94.9

Exercise: Query (compound): CC1COCCN1c1cc(-c2ccnn2C)c2ccnc(-c3ccn[nH]3)c2n1 (centres undefined) + Cc1[nH]c2ccc(F)cc2c1-c1nc2c3cccnc3c3ncccc3c2[nH]1 ; field requested: viability, T/C
Solution: 113

Exercise: Query (compound): CC1COCCN1c1cc(-c2ccnn2C)c2ccnc(-c3ccn[nH]3)c2n1 (centres undefined) + CN(C)c1ccc(Nc2c3ccc(NC(=O)CCN4CCCC4)cc3nc3cc(NC(=O)CCN4CCCC4)ccc23)cc1 ; field requested: viability, T/C
Solution: 82

Exercise: Query (compound): COc1cc(C2c3cc4c(cc3C(OC3OC5COC(C)OC5C(O)C3O)C3COC(=O)C23)OCO4)cc(OC)c1O (centres undefined) + Cc1cnc(CNC(=O)c2c(=O)c3ccc(N4CCCN(C)CC4)nc3n3c2sc2ccccc23)cn1 ; field requested: viability, T/C
Solution: 59.8

Exercise: Query (compound): CC(C)(O)C1CCC(Nc2ccc3ncc(-c4cccc(C(F)(F)F)c4)n3n2)CC1 (centres undefined) + Cc1[nH]c2ccc(F)cc2c1-c1nc2c3cccnc3c3ncccc3c2[nH]1 ; field requested: viability, T/C
Solution: 110

Exercise: Query (compound): O=C(NO)c1cnc(N2CCN(S(=O)(=O)c3ccc4ccccc4c3)CC2)nc1 + Cc1cnc(CNC(=O)c2c(=O)c3ccc(N4CCCN(C)CC4)nc3n3c2sc2ccccc23)cn1 ; field requested: viability, T/C
Solution: 59.1

Exercise: Query (compound): CCCS(=O)(=O)Nc1ccc(F)c(C(=O)c2c[nH]c3ncc(-c4ccc(Cl)cc4)cc23)c1F + Cc1cnc(CNC(=O)c2c(=O)c3ccc(N4CCCN(C)CC4)nc3n3c2sc2ccccc23)cn1 ; field requested: viability, T/C
Solution: 14.7

Exercise: Query (compound): Nc1ccn(C2OC(CO)C(O)C2(F)F)c(=O)n1 (centres undefined) + Cc1[nH]c2ccc(F)cc2c1-c1nc2c3cccnc3c3ncccc3c2[nH]1 ; field requested: viability, T/C
Solution: 9.94

Exercise: Query (compound): COc1cccc2c1C(=O)c1c(O)c3c(c(O)c1C2=O)CC(O)(C(=O)CO)CC3OC1CC(N)C(O)C(C)O1 (centres undefined) + CN(C)c1ccc(Nc2c3ccc(NC(=O)CCN4CCCC4)cc3nc3cc(NC(=O)CCN4CCCC4)ccc23)cc1 ; field requested: viability, T/C
Solution: 75.2

###

Tested on: A375 multi-cell spheroids with HUVEC/MSC, viability
testMethodNotes: Anticancer human tumor A375 cell line growth inhibition [GQUAD];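 also: spheroids exposed to compounds for seven days before readout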
conditionLabel: curve of first compound; second compound 3.16 µM
For each entry below, report its IC50 value.

Exercise: Query (molecule): CC1COCCN1c1cc(-c2ccnn2C)c2ccnc(-c3ccn[nH]3)c2n1 (centres undefined) + Cc1cnc(CNC(=O)c2c(=O)c3ccc(N4CCCN(C)CC4)nc3n3c2sc2ccccc23)cn1 ; field requested: IC50
Solution: < 0.0316 µM

Exercise: Query (molecule): CC1COCCN1c1cc(C2(O)CC3CCC(C2)O3)c2cnn(-c3ccn[nH]3)c2n1 (centres undefined) + Cc1cnc(CNC(=O)c2c(=O)c3ccc(N4CCCN(C)CC4)nc3n3c2sc2ccccc23)cn1 ; field requested: IC50
Solution: < 0.0316 µM

Exercise: Query (molecule): O=C(c1cc(Cc2n[nH]c(=O)c3ccccc23)ccc1F)N1CCN(C(=O)C2CC2)CC1 + CN(C)c1ccc(Nc2c3ccc(NC(=O)CCN4CCCC4)cc3nc3cc(NC(=O)CCN4CCCC4)ccc23)cc1 ; field requested: IC50
Solution: > 10 µM

Exercise: Query (molecule): C#Cc1c(F)ccc2cc(O)cc(-c3ncc4c(N5CC6CCC(C5)N6)nc(OCC56CCCN5CC(F)C6)nc4c3F)c12 (centres undefined) + CN(C)c1ccc(Nc2c3ccc(NC(=O)CCN4CCCC4)cc3nc3cc(NC(=O)CCN4CCCC4)ccc23)cc1 ; field requested: IC50
Solution: > 10 µM

###

Test system: A375 multi-cell spheroids with HUVEC/MSC, viability
testMethodNotes: Anticancer human tumor A375 cell line growth inhibition [GQUAD];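 also: spheroids exposed to compounds for seven days before readout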
conditionLabel: second compound 3.16 µM; first compound 0.316 µM; stronger effect = lower value
For each entry below, report its viability, T/C value.
Lab book: enter the figure in %, no units written.

Exercise: Please provide the recorded viability, T/C for CC(C)n1c(=O)n(C)c2cnc3cc(F)c(-c4ccc(OCCCN5CCCCC5)nc4)cc3c21 + Cc1cnc(CNC(=O)c2c(=O)c3ccc(N4CCCN(C)CC4)nc3n3c2sc2ccccc23)cn1 , tested on A375 multi-cell spheroids with HUVEC/MSC, viability.
Solution: 40

Exercise: Please provide the recorded viability, T/C for C=CCn1c(=O)c2cnc(Nc3ccc(N4CCN(C)CC4)cc3)nc2n1-c1cccc(C(C)(C)O)n1 + Cc1[nH]c2ccc(F)cc2c1-c1nc2c3cccnc3c3ncccc3c2[nH]1 , tested on A375 multi-cell spheroids with HUVEC/MSC, viability.
Solution: 33.3

Exercise: Please provide the recorded viability, T/C for COc1cccc2c1C(=O)c1c(O)c3c(c(O)c1C2=O)CC(O)(C(=O)CO)CC3OC1CC(N)C(O)C(C)O1 (stereo not drawn) + Cc1[nH]c2ccc(F)cc2c1-c1nc2c3cccnc3c3ncccc3c2[nH]1 , tested on A375 multi-cell spheroids with HUVEC/MSC, viability.
Solution: 49.4

Exercise: Please provide the recorded viability, T/C for Cc1[nH]c2ccccc2c1CCNCc1ccc(/C=C/C(=O)NO)cc1 + CN(C)c1ccc(Nc2c3ccc(NC(=O)CCN4CCCC4)cc3nc3cc(NC(=O)CCN4CCCC4)ccc23)cc1 , tested on A375 multi-cell spheroids with HUVEC/MSC, viability.
Solution: 5.53

Exercise: Please provide the recorded viability, T/C for CCCS(=O)(=O)Nc1ccc(F)c(C(=O)c2c[nH]c3ncc(-c4ccc(Cl)cc4)cc23)c1F + Cc1[nH]c2ccc(F)cc2c1-c1nc2c3cccnc3c3ncccc3c2[nH]1 , tested on A375 multi-cell spheroids with HUVEC/MSC, viability.
Solution: 6.35

Exercise: Please provide the recorded viability, T/C for O=C(NO)c1cnc(N2CCN(S(=O)(=O)c3ccc4ccccc4c3)CC2)nc1 + CN(C)c1ccc(Nc2c3ccc(NC(=O)CCN4CCCC4)cc3nc3cc(NC(=O)CCN4CCCC4)ccc23)cc1 , tested on A375 multi-cell spheroids with HUVEC/MSC, viability.
Solution: 4.25

Exercise: Please provide the recorded viability, T/C for C=CC(=O)N1CCN(c2nc(=O)n(-c3c(C)ccnc3C(C)C)c3nc(-c4c(O)cccc4F)c(F)cc23)C(C)C1 (stereo not drawn) + Cc1[nH]c2ccc(F)cc2c1-c1nc2c3cccnc3c3ncccc3c2[nH]1 , tested on A375 multi-cell spheroids with HUVEC/MSC, viability.
Solution: 104

Exercise: Please provide the recorded viability, T/C for O=C(c1cc(Cc2n[nH]c(=O)c3ccccc23)ccc1F)N1CCN(C(=O)C2CC2)CC1 + CN(C)c1ccc(Nc2c3ccc(NC(=O)CCN4CCCC4)cc3nc3cc(NC(=O)CCN4CCCC4)ccc23)cc1 , tested on A375 multi-cell spheroids with HUVEC/MSC, viability.
Solution: 100

Exercise: Please provide the recorded viability, T/C for Nc1ccn(C2OC(CO)C(O)C2(F)F)c(=O)n1 (stereo not drawn) + Cc1[nH]c2ccc(F)cc2c1-c1nc2c3cccnc3c3ncccc3c2[nH]1 , tested on A375 multi-cell spheroids with HUVEC/MSC, viability.
Solution: 13

Exercise: Please provide the recorded viability, T/C for O=C(NO)c1cnc(N2CCN(S(=O)(=O)c3ccc4ccccc4c3)CC2)nc1 + Cc1cnc(CNC(=O)c2c(=O)c3ccc(N4CCCN(C)CC4)nc3n3c2sc2ccccc23)cn1 , tested on A375 multi-cell spheroids with HUVEC/MSC, viability.
Solution: 0.17

Exercise: Please provide the recorded viability, T/C for CC1COCCN1c1cc(-c2ccnn2C)c2ccnc(-c3ccn[nH]3)c2n1 (stereo not drawn) + CN(C)c1ccc(Nc2c3ccc(NC(=O)CCN4CCCC4)cc3nc3cc(NC(=O)CCN4CCCC4)ccc23)cc1 , tested on A375 multi-cell spheroids with HUVEC/MSC, viability.
Solution: 48.9

Exercise: Please provide the recorded viability, T/C for CC1COCCN1c1cc(-c2ccnn2C)c2ccnc(-c3ccn[nH]3)c2n1 (stereo not drawn) + Cc1[nH]c2ccc(F)cc2c1-c1nc2c3cccnc3c3ncccc3c2[nH]1 , tested on A375 multi-cell spheroids with HUVEC/MSC, viability.
Solution: 23

Exercise: Please provide the recorded viability, T/C for COc1cc(C2c3cc4c(cc3C(OC3OC5COC(C)OC5C(O)C3O)C3COC(=O)C23)OCO4)cc(OC)c1O (stereo not drawn) + Cc1[nH]c2ccc(F)cc2c1-c1nc2c3cccnc3c3ncccc3c2[nH]1 , tested on A375 multi-cell spheroids with HUVEC/MSC, viability.
Solution: 69.8

Exercise: Please provide the recorded viability, T/C for C#Cc1c(F)ccc2cc(O)cc(-c3ncc4c(N5CC6CCC(C5)N6)nc(OCC56CCCN5CC(F)C6)nc4c3F)c12 (stereo not drawn) + Cc1cnc(CNC(=O)c2c(=O)c3ccc(N4CCCN(C)CC4)nc3n3c2sc2ccccc23)cn1 , tested on A375 multi-cell spheroids with HUVEC/MSC, viability.
Solution: 36.6

Exercise: Please provide the recorded viability, T/C for CC[C@@]1(O)C(=O)OCc2c1cc1n(c2=O)Cc2cc3c(CN(C)C)c(O)ccc3nc2-1 + CN(C)c1ccc(Nc2c3ccc(NC(=O)CCN4CCCC4)cc3nc3cc(NC(=O)CCN4CCCC4)ccc23)cc1 , tested on A375 multi-cell spheroids with HUVEC/MSC, viability.
Solution: 12.7

Exercise: Please provide the recorded viability, T/C for Cn1ncnc1[C@H]1c2n[nH]c(=O)c3cc(F)cc(c23)N[C@@H]1c1ccc(F)cc1 + Cc1[nH]c2ccc(F)cc2c1-c1nc2c3cccnc3c3ncccc3c2[nH]1 , tested on A375 multi-cell spheroids with HUVEC/MSC, viability.
Solution: 72

Exercise: Please provide the recorded viability, T/C for CCc1c2c(nc3ccc(O)cc13)-c1cc3c(c(=O)n1C2)COC(=O)[C@]3(O)CC + CN(C)c1ccc(Nc2c3ccc(NC(=O)CCN4CCCC4)cc3nc3cc(NC(=O)CCN4CCCC4)ccc23)cc1 , tested on A375 multi-cell spheroids with HUVEC/MSC, viability.
Solution: 1.02

Exercise: Please provide the recorded viability, T/C for O=C(c1cc(Cc2n[nH]c(=O)c3ccccc23)ccc1F)N1CCN(C(=O)C2CC2)CC1 + Cc1cnc(CNC(=O)c2c(=O)c3ccc(N4CCCN(C)CC4)nc3n3c2sc2ccccc23)cn1 , tested on A375 multi-cell spheroids with HUVEC/MSC, viability.
Solution: 43
